system: human recombinant serotonin (5-Hydroxytryptamine) 5-HT2A receptor (Homo sapiens, UniProt P28223)
Construct: expressed in transfected cells; host or cells: CHO-K1 cells
assayComment: Serotonin 5-HT2A radioligand binding ([3H]Ketanserin)
conditionSummary: read-out: Serotonin 5-HT2A, inhibition of ligand binding (1 μM)
metricName: inhibition at 1 µM (%)
Numbers only; they are read as %.

Answered examples (5):
COc1ccc(C(C)(O)Cn2c3c(c4cc(C)ccc42)C2CCC(C3)N2C)cc1F (stereo not shown) [Compound 161]    96
COc1ccc(C#Cn2c3c(c4cc(Cl)ccc42)C2CCC(C3)N2C)cc1F (stereo not shown) [Compound 154]    96
C/C(=C\n1c2c(c3cc(C)ccc31)C1CCC(C2)N1C)c1ccccc1F (stereo not shown) [Compound 164]    94
CN1C2CCC1c1c(n(CCC(=O)N3CCS(=O)(=O)CC3)c3ccc(Cl)cc13)C2 (stereo not shown) [Compound 11]    -8
CN1C2CCC1c1c(n(CCCc3ccc(C(F)(F)F)nc3)c3ccc(Cl)cc13)C2 (stereo not shown) [Compound 37]    23

// Input: CN1C2CCC1c1c(n(CCc3ccc(C(F)(F)F)nc3)c3cc(F)c(Cl)cc13)C2 (stereo not shown) [Compound 77] . Output its inhibition at 1 µM only.
26

// Input: CN1C2CCC1c1c(n(CCC(=O)N3CCSCC3)c3ccc(Cl)cc13)C2 (stereo not shown) [Compound 12] . Output its inhibition at 1 µM only.
10

// Input: Cc1ccc2c(c1)c1c(n2CC(O)c2ccc(C)nc2)CC2CCC1N2C (stereo not shown) [Compound 91] . Output its inhibition at 1 µM only.
2

// Input: COc1ccc(/C(C)=C/n2c3c(c4cc(Cl)ccc42)C2CCC(C3)N2C)cc1F (stereo not shown) [Compound 136] . Output its inhibition at 1 µM only.
99

// Input: Cc1ccc2c(c1)c1c(n2CCc2cncc(Cl)c2)CC2CCC1N2C (stereo not shown) [Compound 88] . Output its inhibition at 1 µM only.
55

// Input: CN1C2CCC1c1c(n(CCC(=O)O)c3ccc(Cl)cc13)C2 (stereo not shown) [Compound 72] . Output its inhibition at 1 µM only.
-6

// Input: CN1[C@@H]2CC[C@H]1c1c(n(CC(C)(O)c3ccc(F)cc3)c3ccccc13)C2 (stereo partly shown) [Compound 99] . Output its inhibition at 1 µM only.
73

// Input: C/C(=C\n1c2c(c3cc(C)ccc31)C1CCC(C2)N1C)c1ccc(Cl)cc1 (stereo not shown) [Compound 116] . Output its inhibition at 1 µM only.
90

----------
system: human recombinant dopamine D2L receptor (Homo sapiens)
Construct: expressed in transfected cells; host or cells: CHO cells
Sequence (P14416 whole entry): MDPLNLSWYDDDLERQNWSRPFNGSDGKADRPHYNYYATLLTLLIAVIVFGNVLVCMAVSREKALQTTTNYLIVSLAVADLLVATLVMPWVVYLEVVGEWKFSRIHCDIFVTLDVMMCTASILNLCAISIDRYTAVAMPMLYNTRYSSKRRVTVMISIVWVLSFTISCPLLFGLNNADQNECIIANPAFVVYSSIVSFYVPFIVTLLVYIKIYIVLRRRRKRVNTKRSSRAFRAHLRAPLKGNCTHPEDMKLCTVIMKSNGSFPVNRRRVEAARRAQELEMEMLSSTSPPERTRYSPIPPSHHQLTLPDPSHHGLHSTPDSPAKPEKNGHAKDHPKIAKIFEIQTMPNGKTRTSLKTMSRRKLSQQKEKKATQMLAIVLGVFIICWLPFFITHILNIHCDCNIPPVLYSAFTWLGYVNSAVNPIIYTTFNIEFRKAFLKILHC
assayComment: Dopamine D2L radioligand binding ([3H]Spiperone)
conditionSummary: read-out: Dopamine (1 μM) D2L, inhibition of ligand binding
Each entry below carries its recorded inhibition at 1 µM.
Numbers only; they are read as %.

Answered examples (5):
C/C(=C\n1c2c(c3cc(C)ccc31)C1CCC(C2)N1C)c1ccc(Cl)cc1 (centres unmarked)    -2
CN1C2CCC1c1c(n(CCCc3ccc(Cl)cc3)c3ccc(Cl)cc13)C2 (centres unmarked)    2
C/C(=C\n1c2c(c3cc(Cl)ccc31)C1CCC(C2)N1C)c1ccc(Cl)cc1 (centres unmarked)    5
CN1C2CCC1c1c(n(CCC(=O)N3CCNC(=O)C3)c3ccc(Cl)cc13)C2 (centres unmarked)    -3
CN1[C@@H]2CC[C@H]1c1c(n(CCc3ccc(C(F)(F)F)nc3)c3ccccc13)C2    -10

State measured inhibition at 1 µM of the compound CN1C2CCC1c1c(n(CCCc3ccc(C(F)(F)F)nc3)c3ccc(Cl)cc13)C2 (centres unmarked) with human recombinant dopamine D2L receptor (Homo sapiens).
2

State measured inhibition at 1 µM of the compound CN1C2CCC1c1c(n(C#Cc3ccc(F)cc3)c3ccc(Cl)cc13)C2 (centres unmarked) with human recombinant dopamine D2L receptor (Homo sapiens).
42

State measured inhibition at 1 µM of the compound COc1ccc(CCn2c3c(c4cc(Cl)ccc42)C2CCC(C3)N2C)cc1 (centres unmarked) with human recombinant dopamine D2L receptor (Homo sapiens).
-6
